molecular target: METTL3/14 (Homo sapiens (Human), UniProt Q86U44); assay: METTL3/14 methyltransferase assay (RapidFire mass spectrometry, RFMS); conditions: 5 nM METTL3/14, 0.2 μM RNA substrate, 0.5 μM SAM, 60 minutes at room temperature
Sequence (Q86U44 whole entry): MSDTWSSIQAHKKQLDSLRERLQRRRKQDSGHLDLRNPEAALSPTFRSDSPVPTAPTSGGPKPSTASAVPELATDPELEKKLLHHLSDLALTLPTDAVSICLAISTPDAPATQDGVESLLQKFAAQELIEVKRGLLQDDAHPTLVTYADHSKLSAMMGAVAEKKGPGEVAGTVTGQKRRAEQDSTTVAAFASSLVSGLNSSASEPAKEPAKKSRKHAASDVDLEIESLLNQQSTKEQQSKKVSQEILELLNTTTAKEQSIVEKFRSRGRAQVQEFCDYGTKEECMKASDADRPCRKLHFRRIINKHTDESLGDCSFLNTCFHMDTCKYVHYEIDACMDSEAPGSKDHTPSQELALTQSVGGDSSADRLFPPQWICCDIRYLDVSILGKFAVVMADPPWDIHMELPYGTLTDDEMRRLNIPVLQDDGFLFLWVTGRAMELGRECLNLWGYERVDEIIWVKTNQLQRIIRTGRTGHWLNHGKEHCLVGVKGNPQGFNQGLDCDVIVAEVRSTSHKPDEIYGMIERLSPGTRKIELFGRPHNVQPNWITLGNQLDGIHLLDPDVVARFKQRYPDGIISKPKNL
Sequence (Q9HCE5 whole entry partner): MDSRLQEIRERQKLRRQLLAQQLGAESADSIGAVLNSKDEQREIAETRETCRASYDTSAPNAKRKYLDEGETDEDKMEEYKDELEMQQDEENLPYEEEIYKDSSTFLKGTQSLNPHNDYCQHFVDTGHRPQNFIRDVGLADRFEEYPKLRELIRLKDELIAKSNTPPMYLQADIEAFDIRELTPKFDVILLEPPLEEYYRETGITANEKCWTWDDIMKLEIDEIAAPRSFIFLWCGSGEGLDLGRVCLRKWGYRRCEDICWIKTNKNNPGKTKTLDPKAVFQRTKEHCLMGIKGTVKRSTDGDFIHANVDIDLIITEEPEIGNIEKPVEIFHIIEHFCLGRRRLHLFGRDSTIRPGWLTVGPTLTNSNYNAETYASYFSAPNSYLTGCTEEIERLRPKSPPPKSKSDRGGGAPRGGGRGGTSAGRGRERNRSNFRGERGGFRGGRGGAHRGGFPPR
measured_metric: IC50 (nM)

Nc1ncnc2c1c(Br)cn2[C@@H]1C[C@H](c2ccc3cc(CN4CCC5(CCC5)C4)[nH]c3c2)[C@@H](O)[C@H]1O :: 6.1
CC1(C)CCN(Cc2ccc([C@H]3C[C@@H](n4cc(Br)c5c(N)ncnc54)[C@H](O)[C@@H]3O)cc2)CC1 :: 103

[A] Nc1ncnc2c1c(Br)cn2[C@@H]1O[C@H](/C=C/C2CNC2)[C@@H](O)[C@H]1O
[B] Nc1ncnc2c1c(Br)cn2[C@H]1C[C@H](O)[C@@H](/C=C/CCCNCC23CC(F)(C2)C3)O1
Quick one: lower IC50, A or B ? Returns: label corresponding to the selected item.
B
